Could you please report measured pEC50 for the items listed next?
biological target: hGLP-1R (Homo sapiens, UniProt P43220); experiment: Functional cAMP activation in the presence of 0.1% casein (no HSA); assay type: cell-based; conditions: read-out: Relative cAMP EC50, hGLP-1R;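 note: intracellular cAMP rise after 30 min at 37 °C read by HTRF, normalized between buffer only (0%) and maximal control ligand (100%), four-parameter variable-slope fit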
Sequence (P43220 24-463): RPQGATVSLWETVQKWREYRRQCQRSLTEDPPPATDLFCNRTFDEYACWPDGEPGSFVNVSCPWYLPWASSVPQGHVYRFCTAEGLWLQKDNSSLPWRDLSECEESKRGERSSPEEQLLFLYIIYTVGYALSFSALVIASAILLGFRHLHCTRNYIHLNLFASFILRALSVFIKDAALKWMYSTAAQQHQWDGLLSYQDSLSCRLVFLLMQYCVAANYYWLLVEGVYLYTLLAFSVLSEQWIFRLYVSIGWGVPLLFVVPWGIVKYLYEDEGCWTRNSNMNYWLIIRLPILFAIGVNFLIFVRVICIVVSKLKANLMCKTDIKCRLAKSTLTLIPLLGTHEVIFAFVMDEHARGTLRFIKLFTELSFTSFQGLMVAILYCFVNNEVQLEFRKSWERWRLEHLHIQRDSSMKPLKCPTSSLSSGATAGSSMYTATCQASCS
Starred links: 1 amine or outer side, 2 acyl side, 3 side chain; linkers in the order of their positions; H or OH if unused. Non-standard residues stand in square brackets, D forms with d. Groups on a side chain read outwards from the residue. No end group written: not given here. *: point of attachment. C18 diacid = O=C(O)CCCCCCCCCCCCCCCCC(=O)*; αMePhe(2-F) = C[C@](N)(Cc1ccccc1F)C(=O)O; γGlu = O=C(O)[C@H](CCC(=O)[*:2])N[*:1]; αMe4Pal = C[C@](N)(Cc1ccncc1)C(=O)O; αMeY = C[C@](N)(Cc1ccc(O)cc1)C(=O)O; 4Pal = N[C@@H](Cc1ccncc1)C(=O)O; Aad = N[C@@H](CCCC(=O)O)C(=O)O; αMeL = CC(C)C[C@](C)(N)C(=O)O; αMeS = C[C@](N)(CO)C(=O)O; Orn = NCCC[C@H](N)C(=O)O; AEEA = NCCOCCOCC(=O)O; Aib = CC(C)(N)C(=O)O
# pEC50 = -log10(concentration in molar units)

// pEC50 value for Y[Aib]Q[dA]T[αMePhe(2-F)]TSD[4Pal]SI[αMeL]LD[Orn]K([AEEA-γGlu-C18 diacid])AQ[αMe4Pal][Orn]FI[dE][αMeY]LIEGGPSSGEPPPESE-NH2 [Example 765] : 9.60

The substance identified as H-Y[Aib]QGT[αMePhe(2-F)]TSD[4Pal][αMeS]I[αMeL]LD[Orn]K([AEEA-AEEA-γGlu-C18 diacid])AQ[Aib][Orn]FIEYLIEGGPSSGAPEPSEG-NH2 [Example 492] registered its pEC50 at 9.84

Given item Y[Aib]QGT[αMePhe(2-F)]TSDYSILLDKK([γGlu-γGlu-C18 diacid])AQ[Aib]AFIEYLEEGGPSSGAPPPSGE-NH2 [Example 435] , the value recorded as its pEC50 is 9.51

GET /value?item= Y[Aib]QGT[αMePhe(2-F)]TSD[4Pal][αMeS]I[αMeL]LD[Orn]K([γGlu-γGlu-C18 diacid])AQ[Aib]QFI[dE][αMeY]LQEGGPSSGEPPPEGTE-NH2 [Example 528] &field=pEC50 returns 9.36

pEC50 measured on H-Y[Aib]QGT[αMePhe(2-F)]TSD[4Pal][αMeS]I[αMeL]LD[Orn]K([γGlu-γGlu-C18 diacid])AQ[Aib][Orn]FI[dE][αMeY]LAEGGPSSGEPPPSGTGE-NH2 [Example 545] = 9.22

Documented pEC50 of H-Y[Aib]QGT[αMePhe(2-F)]TSD[4Pal]SILLD[Orn]K([γGlu-γGlu-C18 diacid])AQ[Aib]AFIE[αMeY]LEEGGPSSGAPPPSGTGE-NH2 [Example 665] : 9.55

Note to self: pEC50 recorded for H-Y[Aib]QGT[αMePhe(2-F)]TSD[4Pal][αMeS]I[αMeL]LD[Orn]K([AEEA-γGlu-C18 diacid])AA[Aib]EFI[dE][αMeY]LIEGGPSSGAPPPSGQ-OH [Example 722] was 9.60

Query H-Y[Aib]QGT[αMePhe(2-F)]TSD[4Pal][αMeS]I[αMeL]LD[Orn]K([AEEA-γGlu-C18 diacid])AQ[αMe4Pal]EFI[dE][αMeY]LVEGGPSSGAPPPSGS-NH2 [Example 694] yields pEC50 of 9.60

Just so you know, measured pEC50 for H-Y[Aib]QGT[αMePhe(2-F)]TSD[4Pal][αMeS]I[αMeL]LD[Orn]K([γGlu-γGlu-C18 diacid])AQ[Aib][Orn]FI[dE]YLIEGGPSSGEPPPSGTGE-NH2 [Example 523] came out at 9.32

// field: pEC50; key: H-Y[Aib]QGT[αMePhe(2-F)]TSD[4Pal][αMeS]ILLD[Orn]K([γGlu-γGlu-C18 diacid])AQ[Aib][Orn]FI[dE]YLIEGGPSSGEPPPEGTEEE-NH2 [Example 577] ; value = 9.03

Briefly, pEC50 measured for Y[Aib]QGT[αMePhe(2-F)]TSD[4Pal][αMeS]I[αMeL]LD[Orn]K([AEEA-γGlu-C18 diacid])AQ[Aib][Orn]FI[dE][αMeY]LIEGGPSSGAPEPSEG-NH2 [Example 429] : 9.75

Kindly note the recorded pEC50 for Y[Aib]QGT[αMePhe(2-F)]TSD[4Pal]SILLDKK([γGlu-γGlu-C18 diacid])AQ[Aib]AFIEYL[Aad]EGGPSSGAPPPSGTGE-NH2 [Example 661] , which is 8.95

Field pEC50 (entry H-Y[Aib]QGT[αMePhe(2-F)]TSD[4Pal]SI[αMeL]LD[Orn]K([AEEA-γGlu-C18 diacid])AQ[Aib][Orn]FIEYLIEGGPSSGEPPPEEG-NH2 [Example 477] ) reads 9.76

The value of pEC50 measured for the substance H-Y[Aib]QGT[αMePhe(2-F)]TSD[4Pal]SI[αMeL]LD[Orn]K([γGlu-γGlu-C18 diacid])AQ[αMe4Pal][Orn]FI[dE][αMeY]LIEGGPSSGEPPPESE-NH2 [Example 685] turned out to be 9.51

Entry H-Y[Aib]QGT[αMePhe(2-F)]TSD[4Pal][αMeS]I[αMeL]LD[Orn]K([AEEA-γGlu-C18 diacid])AQ[Aib][Orn]FI[dE]YLIEGGPSSGEPPPSGTEE-NH2 [Example 533] — recorded pEC50 = 9.48

GET /value?item= H-Y[Aib]QGT[αMePhe(2-F)]TSD[4Pal][αMeS]ILLD[Orn]K([γGlu-γGlu-C18 diacid])AQ[Aib][Orn]FI[dE]YLIEGGPSSGEPPPSGTE-NH2 [Example 531] &field=pEC50 returns 9.45

Sure, the documented pEC50 for H-Y[Aib]QGT[αMePhe(2-F)]TSD[4Pal][αMeS]I[αMeL]LD[Orn]K([AEEA-γGlu-C18 diacid])AQ[αMe4Pal]EFI[dE][αMeY]LVEGGPSSGEPPPSGSE-NH2 [Example 752] is 9.56

In plain terms, H-Y[Aib]QGT[αMePhe(2-F)]TSD[4Pal][αMeS]I[αMeL]LD[Orn]K([AEEA-γGlu-C18 diacid])AQ[αMe4Pal]EFI[dE][αMeY]LIEGGPSSGAPPPEGGGE-NH2 [Example 759] has a documented pEC50 of 9.58

Sample H-Y[Aib]QGT[αMePhe(2-F)]TSD[4Pal]SILLDKK([γGlu-γGlu-C18 diacid])AQ[Aib]AFIEYLEEGGPSSGAPPPSGGEE-NH2 [Example 612] ; pEC50 observed: 8.92

pEC50 in this record for H-Y[Aib]QGT[αMePhe(2-F)]TSD[4Pal][αMeS]I[αMeL]LD[Orn]K([AEEA-γGlu-C18 diacid])AQ[αMe4Pal]EFI[dE][αMeY]LIEGGPSSGEPPPSGGGE-NH2 [Example 742] : 9.58
